- Test System: T1, ScoNrdR (Streptomyces coelicolor, UniProt O69980 1-182)
- T1 sequence: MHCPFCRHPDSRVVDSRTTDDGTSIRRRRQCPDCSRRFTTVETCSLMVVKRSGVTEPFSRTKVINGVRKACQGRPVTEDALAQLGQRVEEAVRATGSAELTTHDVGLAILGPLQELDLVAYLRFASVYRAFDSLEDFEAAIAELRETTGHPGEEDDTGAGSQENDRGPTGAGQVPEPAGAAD
- Assay: MST; dATP + ATP; MST, temperature not stated. Lmo: 25 mM Bis-Tris propane pH 6.5, 100 mM KCl, 5 mM MgCl2, 5% glycerol, 1 mM DTT, 0.05% Tween 20, one nucleotide 1 mM or two at 0.5 mM each; Spn: 25 mM HEPES pH 7.2, 250 mM NaCl, 2.5 mM MgCl2, 15% glycerol, 2 mM DTT, 0.1 mg/mL BSA, 0.05% Tween 20, 0.5 mM ATP and/or dATP; Eco: 25 mM Tris pH 8.5, 100 mM NaCl, 7 mM MgCl2, 1 mM DTT, 0.025% Tween 20, 1 mM ATP + 1 mM dATP; …
- Measurement Conditions: protein: recombinant; chain copies: 4; label: 5'-Cy5 sense; blunt
Measured Kd, listed per entry.
Write it as a number; the unit nM goes unstated.

* Synt 19 bp spacer (dsDNA) DNA 1: GCCAAACACAACATCTAGTGGTTGGATAGCGTGAAGTAGCACACAACATCTAGTGGACCTC DNA 2: GAGGTCCACTAGATGTTGTGTGCTACTTCACGCTATCCAACCACTAGATGTTGTGTTTGGC | 1660

Task: Tell us which Kd value is on record for Synt 27 bp spacer (dsDNA) DNA 1: GCCAAACACAACATCTAGTGGTTGGATAGCGTGAAGTTACCACCTAGCACACAACATCTAGTGGACCTC DNA 2: GAGGTCCACTAGATGTTGTGTGCTAGGTGGTAACTTCACGCTATCCAACCACTAGATGTTGTGTTTGGC
Result: 3500

Task: Look up and report measured Kd for this entry: Synt 14 bp spacer (dsDNA) DNA 1: GCCAAACACAACATCTAGTGGTTGGATAGCTGAGCACACAACATCTAGTGGACCTC DNA 2: GAGGTCCACTAGATGTTGTGTGCTCAGCTATCCAACCACTAGATGTTGTGTTTGGC
Result: 154
